test system: PKC mediated IL-2 production; experiment: IL-2 ELISA, human primary T cell, anti CD3+CD28+; type: cell-based; details: Homo sapiens, T-cell, 24 h, human primary T cells stimulated with αCD3 and αCD28, 24 hours
pEC50: −log10 of the molar value.
# pEC50 listing for each entry below
assay.endpoint: pEC50

| compound | observed.measurement |
| --- | --- |
| Cc1ccc(Nc2ncc(F)c(N[C@@H]3C[C@@H]4CCCN4C(C)(C)C3)n2)cc1-n1nnnc1S(C)(=O)=O [Compound 286] | < 5.00 |
| Cn1nnn(-c2cc(Nc3ncc(F)c(N[C@@H]4C[C@@H]5CC(F)(F)CN5C(C)(C)C4)n3)c(F)cc2C2CC2)c1=O [Compound 45] | 5.00 to 6.00 |
| Cc1cc(Nc2ncc(F)c(N[C@@H]3C[C@@H]4CCCN4C(C)(C)C3)n2)ccc1OCCO [Compound 134] | 6.30 to 7.00 |
| CC1(C)C[C@H](Nc2nc(Nc3ccc(OCCO)c(-n4cnnn4)c3)ncc2Cl)C[C@@H]2CCCN21 [Compound 223] | > 7.00 |
| Cn1nnn(-c2cc(Nc3ncc(F)c(N[C@@H]4C[C@@H]5C[C@@H](F)CN5C(C)(C)C4)n3)c(F)cc2C2CC2)c1=O [Compound 64] | 6.30 to 7.00 |
| Cn1nnn(-c2cc(Nc3ncc(F)c(N[C@@H]4C[C@@H]5CCCN5C(C)(C)C4)n3)c(F)cc2O[C@H]2CCOC2)c1=O [Compound 110] | 6.30 to 7.00 |
| CC1(C)C[C@H](Nc2nc(Nc3ccc(N4CC(O)C4)c(C(F)(F)F)c3)ncc2F)C[C@@H]2CCCN21 [Compound 326] | 6.30 to 7.00 |
| Cn1nnn(-c2cc(Nc3ncc(F)c(N[C@@H]4C[C@@H]5CCCN5C(C)(C)C4)n3)c(F)cc2OCCNC(=O)OC(C)(C)C)c1=O [Compound 226] | 6.30 to 7.00 |
| Cn1nnn(-c2cc(Nc3ncc(F)c(N[C@@H]4C[C@@H]5CCCN5C(C)(C)C4)n3)c(F)cc2OCC(O)CO)c1=O (stereo partly shown) [Compound 199] | 6.00 to 6.30 |
| Cn1nc2n(c1=O)-c1cc(Nc3ncc(F)c(N[C@@H]4C[C@@H]5CCCN5C(C)(C)C4)n3)ccc1OC21CCOCC1 [Compound 283] | 6.30 to 7.00 |
| Cn1nnn(-c2cc(Nc3ncc(F)c(N[C@@H]4C[C@@H]5CCCN5C(C)(C)C4)n3)c(F)cc2OC2COC2)c1=O [Compound 88] | 6.30 to 7.00 |
| CSc1nnnn1-c1cccc(Nc2ncc(F)c(N[C@@H]3C[C@@H]4CCCN4C(C)(C)C3)n2)c1 [Compound 261] | > 7.00 |
| Cn1nc2n(c1=O)-c1cc(Nc3ncc(F)c(N[C@@H]4C[C@@H]5CCCN5C(C)(C)C4)n3)ccc1OC21COC1 [Compound 293] | 6.30 to 7.00 |
